- Test system: TO-N3-2 (biotin conjugate)
- testMethodNotes: pull-down binding Z-score (relative to library population); higher = stronger binding
- recordedConditions: RNA library: Library-2
pull-down binding Z-score below 0.5 gives NO; pull-down binding Z-score at or above it gives YES.

- orderedResidues: "AAGAGAAAGUCAACAUCAAUAUUGUUGGUGACUUUAAACUU"
  assayedTarget: "TO-N3-2 (biotin conjugate)"
  labelValue: "NO"
- orderedResidues: "GCCGGAGCGGGC [hsa-mir-1181]"
  assayedTarget: "TO-N3-2 (biotin conjugate)"
  labelValue: "YES"
- orderedResidues: "CUGACAAAGUUUUCAG"
  assayedTarget: "TO-N3-2 (biotin conjugate)"
  labelValue: "NO"

Task: For this sequence, is measured pull-down binding Z-score 0.5 or higher? GUGUUGGGUAUAAGUAACA [hsa-mir-1270]
Result: NO

Task: And for CAUGUCAUGUCUAAACAUACUGACUUUUCAAGUG [SHAPE_invitro_SARS-CoV-2_Motif_169] ?
Result: NO

Task: And for GCAAGGCUGUAGUGUGCACAGCCUUGA [hsa-mir-4452] ?
Result: YES

meta.source: the supplement of paper PMC11865577
